# SYSTEM_NAME: human recombinant BACE2 (Homo sapiens (Human), UniProt Q9Y5Z0)
# Sequence (Q9Y5Z0 63-518): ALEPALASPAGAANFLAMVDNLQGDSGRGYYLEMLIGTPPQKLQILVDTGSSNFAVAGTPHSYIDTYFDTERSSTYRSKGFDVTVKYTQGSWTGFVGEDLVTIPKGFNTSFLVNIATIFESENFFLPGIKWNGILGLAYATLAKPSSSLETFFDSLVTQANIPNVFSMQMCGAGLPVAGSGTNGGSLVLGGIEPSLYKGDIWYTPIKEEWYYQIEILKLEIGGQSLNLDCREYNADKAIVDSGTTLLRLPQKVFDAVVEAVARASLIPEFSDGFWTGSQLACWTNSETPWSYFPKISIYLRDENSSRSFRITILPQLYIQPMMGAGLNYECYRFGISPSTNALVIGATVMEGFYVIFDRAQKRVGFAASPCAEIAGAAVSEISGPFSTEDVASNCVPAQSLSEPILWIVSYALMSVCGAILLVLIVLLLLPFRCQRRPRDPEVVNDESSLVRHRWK
# ASSAY_OVERVIEW: In vitro enzymatic BACE2 FRET assay
# Format: biochemical
# STATED_CONDITIONS: read-out: IC50 IP (μM) BACE2 enzyme
MEASURED_METRIC: IC50 (µM)

Use the examples below as a reference point.
1. Cc1ccnc(COc2cnc3c(Nc4cc(F)c(F)c([C@@]5(C)N=C(N)S[C@@]6(C(F)F)C[C@@H]56)c4)nccc3n2)n1 [Example 874] : 0.0755
2. C#CCOc1cnc2c(Nc3ccc(F)c([C@@]4(C)N=C(N)S[C@@]5(C(=O)NC6CC6)C[C@H]54)c3)nccc2n1 [Example 794] : 0.0397
3. COC[C@]12C[C@H]1[C@@](C)(c1cc(NC(=O)c3ccc(OCC(F)(F)F)cn3)ccc1F)N=C(N)S2 [Example 698] : 0.316
4. Cc1nc(OCc2ncco2)cnc1C(=O)Nc1cc(F)c(F)c([C@@]2(C)N=C(N)S[C@@]3(CF)C[C@H]32)c1 [Example 803] : 0.0157
5. C#CCOc1cnc2c(Nc3ccc(F)c([C@@]4(C)N=C(N)S[C@]5([C@H](C)O)[C@H]4C5(F)F)c3)nccc2n1 [Example 714] : 0.00913

P. CN(C)C(=O)/C=C/[C@]12C[C@H]1[C@@](CF)(c1cc(Nc3nccc4cc(OCc5ncco5)cnc34)ccc1F)N=C(N)S2 [Example 770]
Q. C[C@]1(c2cc(Nc3nccc4nc(OCc5ncco5)cnc34)cc(F)c2F)N=C(N)S[C@@]2(CF)C[C@H]21 [Example 802]
Q) Hey, which is lower on measured IC50, P or Q ? Output the label that corresponds to your choice.
A) Q

P. Cc1noc(COc2cnc(C(=O)Nc3cc(C)c(F)c([C@@]4(C)N=C(N)S[C@@]5(C(F)F)C[C@@H]45)c3)cn2)n1 [Example 1075]
Q. C#CCOc1cnc(C(=O)Nc2cnc(F)c([C@@]3(C)N=C(N)S[C@@]4(CF)C[C@H]43)c2)cn1 [Example 606]
Q) Field: entry with larger IC50 (options P / Q ). Output the label that corresponds to your choice.
A) P

I. [2H]C([2H])([2H])OC[C@]12C[C@H]1[C@@](C)(c1cc(Nc3nccc4nc(OCC#C)cnc34)cnc1F)N=C(N)S2 [Example 853]
II. COc1cnc2c(Nc3cc(F)c(F)c([C@@]4(C)N=C(N)S[C@H]5C[C@H]54)c3)ncnc2c1 [Example 897]
III. CC(C)Oc1cnc2c(Nc3cc(F)c(F)c([C@@]4(C)N=C(N)S[C@@]5(C(F)F)C[C@@H]45)c3)nccc2n1 [Example 876]
IV. C#CCOc1cnc2c(Nc3ccc(F)c([C@@]4(C)N=C(N)S[C@@]5(C(=O)N6CCCC6)C[C@H]54)c3)nccc2n1 [Example 632]
V. C#C[C@H](C)Oc1cnc(C(=O)Nc2ccc(F)c([C@@]3(C)N=C(N)S[C@@]4(CF)C[C@H]43)c2)c(C)c1 [Example 651]
Q) Order each entry by recorded IC50, climbing from the minimum. Response format: the labels, sorted as the prompt asks.
A) IV, I, II, V, III

a. C#CCOc1cnc2c(Nc3cc(F)c(F)c([C@@]4(C)N=C(N)S[C@@]5(C#N)C[C@H]54)c3)nccc2n1 [Example 916]
b. C[C@]1(c2cc(Nc3nccc4nc(OCc5ncco5)cnc34)cnc2F)N=C(N)S[C@@]2(CF)C[C@H]21 [Example 602]
Q) Hey, which is lower on measured IC50, a or b ? Output the label that corresponds to your choice.
A) a

###

# SYSTEM_NAME: Recombinant Cat D (Homo sapiens (Human))
# Sequence (P07339 65-412): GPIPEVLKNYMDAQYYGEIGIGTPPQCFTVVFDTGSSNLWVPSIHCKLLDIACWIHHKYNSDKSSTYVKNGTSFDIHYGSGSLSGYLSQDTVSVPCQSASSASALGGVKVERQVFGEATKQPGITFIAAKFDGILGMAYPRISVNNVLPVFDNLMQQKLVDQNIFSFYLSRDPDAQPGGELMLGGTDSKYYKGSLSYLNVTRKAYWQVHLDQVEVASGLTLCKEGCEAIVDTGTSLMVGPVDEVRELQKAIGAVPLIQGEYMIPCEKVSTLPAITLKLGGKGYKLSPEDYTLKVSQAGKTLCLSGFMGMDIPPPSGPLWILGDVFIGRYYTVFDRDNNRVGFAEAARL
# ASSAY_OVERVIEW: In vitro enzymatic Cathepsin D (Cat D) FRET assay
# Assay type: biochemical
# STATED_CONDITIONS: read-out: IC50 IP (μM) CatD
MEASURED_METRIC: IC50 (µM)

P. COC[C@]12C[C@H]1[C@@](C)(c1cc(Nc3nccc4cc(OCc5cocn5)cnc34)cc(F)c1F)N=C(N)S2
Q. Cc1nc(OCC(F)(F)F)cnc1C(=O)Nc1cc(F)c(F)c([C@@]2(C)N=C(N)S[C@@]3(CF)C[C@H]32)c1
R. C#CCOc1cnc2c(Nc3cc(C(=O)OC)c(F)c([C@@]4(C)N=C(N)S[C@@]5(C(=O)OC)C[C@H]54)c3)nccc2n1
Q) Order the records, beginning with the lowest IC50 and ending with the highest. Response format: the labels, sorted as the prompt asks.
A) R, Q, P

A. COC[C@]12C[C@H]1[C@@](C)(c1cc(Nc3nccc4cc(OCC#N)cnc34)cc(F)c1F)N=C(N)S2
B. C#CCOc1cnc2c(Nc3ccc(F)c([C@@]4(C)N=C(N)S[C@@]5(CF)C[C@H]54)c3)nccc2n1
Q) Field: entry with larger IC50 (options A / B ). Output the label that corresponds to your choice.
A) A

###

# SYSTEM_NAME: human recombinant BACE2 (Homo sapiens (Human), UniProt Q9Y5Z0)
# ASSAY_OVERVIEW: In vitro enzymatic BACE2 FRET assay
# Assay type: biochemical
# STATED_CONDITIONS: read-out: IC50 IP (μM) BACE2 enzyme
MEASURED_METRIC: IC50 (µM)

Use the examples below as a reference point.
1. COC[C@]12C[C@H]1[C@@](C)(c1cc(Nc3nccc4nc(OCc5ncccn5)cnc34)cc(F)c1F)N=C(N)S2 : 0.14
2. C#CCOc1cnc2c(Nc3cnc(OC)c([C@@]4(C)N=C(N)S[C@@]5(CF)C[C@H]54)c3)nccc2n1 : 0.208
3. C#CCOc1cnc2c(Nc3cc(C(=O)OC)c(F)c([C@@]4(C)N=C(N)S[C@@]5(CO)C[C@H]54)c3)nccc2n1 : 0.346
4. Cc1nc(OCc2ncco2)cnc1C(=O)Nc1cc(F)c(F)c([C@@]2(C)N=C(N)S[C@@]3(C(F)F)C[C@@H]23)c1 : 0.0286
5. C[C@]1(c2cc(Nc3ncnc4cc(OCc5ncco5)cnc34)cnc2F)N=C(N)S[C@@]2(CC#N)C[C@H]21 : 0.154

1. C#C[C@H](C)Oc1cnc2c(Nc3ccc(F)c([C@@]4(C)N=C(N)S[C@@]5(CF)C[C@H]54)c3)nccc2n1
2. CC#CCOc1cnc2c(Nc3cc(F)c(F)c([C@@]4(C)N=C(N)S[C@@]5(COC)C[C@H]54)c3)nccc2c1
Q) Hey, which is lower on measured IC50, 1 or 2 ? Output the label that corresponds to your choice.
A) 2

###

# SYSTEM_NAME: human recombinant BACE2 (Homo sapiens (Human), UniProt Q9Y5Z0)
# ASSAY_OVERVIEW: In vitro enzymatic BACE2 FRET assay
# Type: biochemical
# STATED_CONDITIONS: read-out: IC50 IP (μM) BACE2 enzyme
MEASURED_METRIC: IC50 (µM)

1. C#C[C@H](C)Oc1cnc(C(=O)Nc2cc(F)c(F)c([C@@]3(C)N=C(N)S[C@@]4(COC)C[C@H]43)c2)cn1 [Example 1009] : 0.0436

I. C#CCOc1cnc(C(=O)Nc2cc(F)c(F)c([C@@]3(C)N=C(N)S[C@@]4(C(=O)OC)C[C@H]43)c2)cn1 [Example 975]
II. C#CCOc1cnc2c(Nc3ccc(F)c([C@@]4(C)N=C(N)S[C@@]5(C#N)C[C@H]54)c3)ncnc2c1 [Example 928]
III. COC[C@]12C[C@H]1[C@@](C)(c1cc(Nc3nccc4cc(OCC(F)(F)C(F)F)cnc34)cc(F)c1F)N=C(N)S2 [Example 731]
Q) Arrange the 3 compounds from largest to smallest IC50. Response format: the labels, sorted as the prompt asks.
A) III, I, II

###

# SYSTEM_NAME: human recombinant BACE1 (Homo sapiens (Human))
# Sequence (P56817 46-501): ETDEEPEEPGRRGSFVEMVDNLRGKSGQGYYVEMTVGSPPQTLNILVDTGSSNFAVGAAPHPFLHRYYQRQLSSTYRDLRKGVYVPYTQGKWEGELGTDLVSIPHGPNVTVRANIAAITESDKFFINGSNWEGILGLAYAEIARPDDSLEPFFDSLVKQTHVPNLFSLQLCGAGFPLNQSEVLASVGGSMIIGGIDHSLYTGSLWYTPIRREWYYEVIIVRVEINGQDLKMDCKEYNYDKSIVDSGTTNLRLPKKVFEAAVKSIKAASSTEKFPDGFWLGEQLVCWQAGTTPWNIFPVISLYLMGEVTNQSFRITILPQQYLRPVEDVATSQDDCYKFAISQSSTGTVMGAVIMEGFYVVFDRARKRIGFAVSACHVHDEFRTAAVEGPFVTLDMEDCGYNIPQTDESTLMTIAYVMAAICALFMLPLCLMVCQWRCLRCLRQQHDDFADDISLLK
# ASSAY_OVERVIEW: In vitro enzymatic BACE1 FRET assay
# Assay type: biochemical
# STATED_CONDITIONS: read-out: IC50 IP (μM) BACE1 enzyme
MEASURED_METRIC: IC50 (µM)

Use the examples below as a reference point.
1) C[C@]1(c2cc(NC(=O)c3cnc(OCc4ncco4)cn3)cnc2F)N=C(N)S[C@@]2(CF)C[C@H]21 : 0.000975
2) C[C@]1(c2cc(Nc3ncnc4cc(C#N)cnc34)cnc2F)N=C(N)S[C@@]2(C(F)F)C[C@@H]12 : 0.0107
3) COC[C@]12C[C@H]1[C@@](C)(c1cc(NC(=O)c3cnc(OCC(F)F)cn3)ccc1F)N=C(N)S2 : 0.0023

P. Cc1noc(COc2cnc3c(Nc4cc(F)c(F)c([C@@]5(C)N=C(N)S[C@@]6(C(F)F)C[C@@H]56)c4)nccc3n2)n1
Q. C#C[C@H](C)Oc1cnc(C(=O)Nc2cc(F)c(F)c([C@@]3(C)N=C(N)S[C@@]4(COC)C[C@H]43)c2)cn1
R. C#CCOc1cnc(C(=O)Nc2ccc(F)c([C@@]3(C)N=C(N)S[C@@]4(COC)C[C@H]43)c2)cn1
S. C[C@@H](Oc1cnc2c(Nc3cc(F)c(F)c([C@@]4(C)N=C(N)S[C@@]5(C(F)F)C[C@@H]45)c3)nccc2n1)c1ncco1
T. COC[C@]12C[C@H]1[C@@](C)(c1cc(Nc3nccc4nc(OCc5ncco5)cnc34)cc(F)c1F)N=C(N)S2
Q) Order each entry by recorded IC50, climbing from the minimum. Response format: the labels, sorted as the prompt asks.
A) R, Q, T, P, S
(R: 0.000404 µM, Q: 0.000695 µM, T: 0.00173 µM, P: 0.00295 µM, S: 0.177 µM)

1. COC[C@]12C[C@H]1[C@@](CF)(c1cc(NC(=O)c3ncc(C#N)cc3C)ccc1F)N=C(N)S2
2. C#CCOc1cnc2c(Nc3ccc(F)c([C@@]4(CF)N=C(N)S[C@@]5(COC)C[C@H]54)c3)ncnc2c1
3. C#CCOc1cnc2c(Nc3ccc(F)c([C@@]4(CF)N=C(N)S[C@@]5(c6cnco6)C[C@@H]45)c3)nccc2n1
4. C#CCOc1cnc2c(Nc3cnc(F)c([C@@]4(C)N=C(N)S[C@@]5(COC)C[C@H]54)c3)nccc2n1
5. COC[C@]12C[C@H]1[C@@](C)(c1cc(NC(=O)c3ncc(O[C@@H](C)c4ncco4)nc3C)cc(F)c1F)N=C(N)S2
Q) Arrange the 5 molecules from largest to smallest IC50. Response format: the labels, sorted as the prompt asks.
A) 5, 2, 1, 4, 3

1. Cc1nc(OCc2ncco2)cnc1C(=O)Nc1ccc(F)c([C@@]2(C)N=C(N)S[C@@]3(C(F)F)C[C@@H]23)c1
2. CN(C)C(=O)/C=C/[C@]12C[C@H]1[C@@](CF)(c1cc(Nc3ncnc4cc(OCc5ncco5)cnc34)ccc1F)N=C(N)S2
3. COC[C@]12C[C@H]1[C@@](C)(c1cc(NC(=O)c3cnc(OCCCF)cn3)cc(F)c1F)N=C(N)S2
4. [2H]C([2H])([2H])OC[C@]12C[C@H]1[C@@](C)(c1cc(NC(=O)c3cnc(OCC#C)cn3)cnc1F)N=C(N)S2
5. COc1cnc2c(Nc3cc(F)c(F)c([C@@]4(C)N=C(N)S[C@H]5C[C@H]54)c3)ncnc2c1
Q) Arrange the 5 molecules from largest to smallest IC50. Response format: the labels, sorted as the prompt asks.
A) 5, 3, 1, 2, 4
(5: 0.035 µM, 3: 0.0055 µM, 1: 0.00209 µM, 2: 0.00112 µM, 4: 0.000574 µM)

P. CON(C)C(=O)[C@]12C[C@H]1[C@@](C)(c1cc(Nc3ncnc4cc(Cl)cnc34)cc(F)c1F)N=C(N)S2
Q. C#CCOc1cnc(C(=O)Nc2ccc(F)c([C@@]3(C)N=C(N)S[C@@]4(C(=O)NC(C)(C)CF)C[C@H]43)c2)cn1
Q) Hey, which is lower on measured IC50, P or Q ? Output the label that corresponds to your choice.
A) Q

A. CC(C)(CF)NC(=O)[C@]12C[C@H]1[C@@](C)(c1cc(NC(=O)c3ccc(C#N)cn3)ccc1F)N=C(N)S2
B. Cc1nnc(COc2cnc3c(Nc4cc(F)c(F)c([C@@]5(C)N=C(N)S[C@@]6(C(F)F)C[C@@H]56)c4)nccc3n2)s1
Q) Hey, which is lower on measured IC50, A or B ? Output the label that corresponds to your choice.
A) A

P. Cc1cc(OCC(F)(F)F)cnc1C(=O)Nc1cc(F)c(F)c([C@@]2(C)N=C(N)S[C@@]3(C(F)F)C[C@@H]23)c1
Q. COC[C@]12C[C@H]1[C@@](C)(c1cc(Nc3nccc4nc(OCc5nc(C)no5)cnc34)cc(F)c1F)N=C(N)S2
Q) Field: entry with larger IC50 (options P / Q ). Output the label that corresponds to your choice.
A) Q

P. C[C@]1(c2cc(Nc3nccc4cc(OCc5ncco5)cnc34)cnc2F)N=C(N)S[C@]2(CO)[C@H]1C2(F)F
Q. C#CCOc1cnc2c(Nc3ccc(F)c([C@@]4(CF)N=C(N)S[C@@]5(Cn6cc(C)nn6)C[C@H]54)c3)nccc2n1
Q) Field: entry with larger IC50 (options P / Q ). Output the label that corresponds to your choice.
A) Q
